# Assayed Target: abc isoform of human TMEM16A channel expressed in CHO cells (Homo sapiens, UniProt Q5XXA6, DEL476-501)
# Construct: expressed in transfected cells; host or cells: CHO cells, doxycycline-inducible expression under Blasticidin/Zeocin selection
# Sequence (Q5XXA6 with tags, fused parts or gaps isoform Q5XXA6-5 DEL539-564): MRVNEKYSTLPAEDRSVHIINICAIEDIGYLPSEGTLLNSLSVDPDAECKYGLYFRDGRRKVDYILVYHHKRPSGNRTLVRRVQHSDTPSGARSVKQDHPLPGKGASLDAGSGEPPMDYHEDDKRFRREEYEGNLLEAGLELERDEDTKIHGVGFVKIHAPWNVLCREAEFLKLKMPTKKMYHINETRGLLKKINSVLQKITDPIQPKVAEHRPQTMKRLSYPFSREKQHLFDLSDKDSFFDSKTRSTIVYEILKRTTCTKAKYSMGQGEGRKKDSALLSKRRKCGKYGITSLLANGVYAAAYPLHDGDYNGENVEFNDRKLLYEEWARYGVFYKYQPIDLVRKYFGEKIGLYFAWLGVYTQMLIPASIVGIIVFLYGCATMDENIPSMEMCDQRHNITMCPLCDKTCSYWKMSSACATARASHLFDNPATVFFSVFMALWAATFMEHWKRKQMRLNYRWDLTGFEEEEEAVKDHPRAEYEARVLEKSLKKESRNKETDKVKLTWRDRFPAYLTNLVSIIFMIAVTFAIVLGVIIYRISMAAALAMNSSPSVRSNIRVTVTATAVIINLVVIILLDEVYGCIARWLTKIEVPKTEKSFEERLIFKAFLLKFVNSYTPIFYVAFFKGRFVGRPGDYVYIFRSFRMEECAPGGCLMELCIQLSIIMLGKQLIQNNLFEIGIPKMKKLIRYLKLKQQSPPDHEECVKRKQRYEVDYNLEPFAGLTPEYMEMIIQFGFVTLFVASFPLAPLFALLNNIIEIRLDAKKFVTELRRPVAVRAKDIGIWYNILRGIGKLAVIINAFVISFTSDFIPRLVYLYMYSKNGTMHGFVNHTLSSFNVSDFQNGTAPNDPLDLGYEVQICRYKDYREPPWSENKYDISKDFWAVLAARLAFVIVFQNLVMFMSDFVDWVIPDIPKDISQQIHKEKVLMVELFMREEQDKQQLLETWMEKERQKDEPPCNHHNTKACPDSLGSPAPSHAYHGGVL
# Measurement Notes: Automated patch clamping (QPatch) assay to measure TMEM16A activity in whole-cell
# Type: cell-based
# Assay Conditions: CHO, maximum current at highest dose relative to reference potentiator at maximal concentration (upper limit) and vehicle (lower limit); read-out: TMEM16A QPATCH assay EC50 V3 Assay Window (% TMEM16A max activation)
Counter-ions that a name gives are not always drawn.
Exercise: for every item that follows, state its recorded Emax.
Answer format: numeric, % implied, no suffix.

Prompt: Form field: reported Emax of `COC(=O)[C@@H](NC(=O)c1cnc(-c2cccc(-c3cc(C(=O)NC(C4CC4)C4CC4)n(CCO)n3)c2)o1)C(C)C`
Response: 167

Prompt: Form field: reported Emax of `COC(=O)[C@@H](NC(=O)c1nc(-c2cccc(-c3ncc(C(=O)NC(C4CC4)C4CC4)o3)c2)n[nH]1)C(C)C`
Response: 121

Prompt: Form field: reported Emax of `CCC(CC)NC(=O)c1cnc(-c2cccc(-c3cc(C(=O)N[C@@H](C)C(=O)OC)n[nH]3)c2)o1`
Response: 86

Prompt: Form field: reported Emax of CCC(CC)NC(=O)c1cnc(-c2cccc(-c3cc(C(=O)N[C@@H](C)C(C)(C)C)n[nH]3)c2)o1 [Example 3.35, Trifluoroacetate]
Response: 69

Prompt: Form field: reported Emax of `CCC(CC)NC(=O)c1cc(-c2cccc(-c3ncc(C(=O)NCC4(C)CCCCC4)o3)c2)[nH]n1`
Response: 72

Prompt: Form field: reported Emax of CCC(CC)NC(=O)c1cnc(-c2cccc(-c3cc(C(=O)N[C@@H](C)[C@H]4CCCO4)n[nH]3)c2)o1 (single isomer, unassigned)
Response: 92

Prompt: Form field: reported Emax of `CCC(CC)NC(=O)c1cnc(-c2cccc(-c3cc(C(=O)NC4CCCCC4)n[nH]3)c2)o1`
Response: 96

###

# Assayed Target: abc isoform of human TMEM16A channel expressed in CHO cells (Homo sapiens, UniProt Q5XXA6, DEL476-501)
# Construct: expressed in transfected cells; host or cells: CHO cells, doxycycline-inducible expression under Blasticidin/Zeocin selection
# Measurement Notes: Automated patch clamping (QPatch) assay to measure TMEM16A activity in whole-cell
# Assay type: cell-based
# Assay Conditions: CHO cells expressing human TMEM16A (abc), whole-cell automated patch clamp, Hill fit; read-out: TMEM16A QPATCH assay EC50 V3 EC50
Where a name gives a salt, the structure may show the parent alone.
Exercise: for every item that follows, state its recorded EC50.
Answer format: numeric, nM implied, no suffix.

Prompt: Form field: reported EC50 of CCC(CC)NC(=O)c1cnc(-c2cccc(-c3cc(C(=O)NCC4(N5CCOCC5)CCCCC4)n[nH]3)c2)o1 [Example 3.67, Trifluoroacetate]
Response: 790

Prompt: Form field: reported EC50 of C[C@H](NC(=O)c1cnc(-c2cccc(-c3nnc(C(=O)NC(C4CC4)C4CC4)[nH]3)c2)o1)C1CC1 [Example 12.7]
Response: 20

Prompt: Form field: reported EC50 of COC(=O)[C@@H](NC(=O)c1cnc(-c2cccc(-c3cc(C(=O)N[C@@H](C)C4CC4)n[nH]3)c2)o1)C(C)C [Example 1.7]
Response: 90

Prompt: Form field: reported EC50 of CCC(CC)NC(=O)c1cc(-c2cccc(-c3ncc(C(=O)N[C@@H](C)C4CCCCC4)o3)c2)[nH]n1 [Example 1.24]
Response: 180

Prompt: Form field: reported EC50 of CCC(CC)NC(=O)c1cnc(-c2cccc(-c3cc(C(=O)NC(C)(C)C4CC4)n[nH]3)c2)o1 [Example 3.7]
Response: 20

Prompt: Form field: reported EC50 of CCC(CC)NC(=O)c1cnc(-c2cccc(-c3cc(C(=O)NCC4(C)CC4)n[nH]3)c2)o1 [Example 3.13]
Response: 70

Prompt: Form field: reported EC50 of COC(=O)[C@@H](NC(=O)c1cnc(-c2cccc(-c3cc(C(=O)N[C@@H](C)C4CC4)n(CC(O)C(F)(F)F)n3)c2)o1)C(C)C (single isomer, unassigned) [8.1 (i)]
Response: 10

Prompt: Form field: reported EC50 of CCC(CC)NC(=O)c1cnc(-c2cccc(-c3cc(C(=O)N[C@H](C)C4CC4)n(CCO)n3)c2)o1 [Example 5.1]
Response: 320

Prompt: Form field: reported EC50 of CCOC(=O)Cn1nc(-c2cccc(-c3ncc(C(=O)NC(CC)CC)o3)c2)nc1C(=O)NC(CC)CC [Example 15.2]
Response: 80

Prompt: Form field: reported EC50 of C[C@@H](NC(=O)c1n[nH]c(-c2cccc(-c3ncc(C(=O)N[C@H](C)C4CC4)o3)c2)n1)C1CC1 [Example 13.2]
Response: 650

Prompt: Form field: reported EC50 of CCC(CC)NC(=O)c1cnc(-c2cccc(-c3cc(C(=O)NCC4CCC4)n[nH]3)c2)o1 [Example 3.5]
Response: 40

Prompt: Form field: reported EC50 of CCC(CC)NC(=O)c1cnc(-c2cccc(-c3nc(C(=O)NC(CC)CC)n(CCN(C)C)n3)c2)o1 [Example 15.4]
Response: 1000

Prompt: Form field: reported EC50 of CCOC(=O)CCCn1nc(-c2cccc(-c3ncc(C(=O)NC(CC)CC)o3)c2)nc1C(=O)NC(CC)CC [Example 15.8]
Response: 90

Prompt: Form field: reported EC50 of CCC(CC)NC(=O)c1cnc(-c2cccc(-c3cc(C(=O)N[C@@H](C)[C@@H]4CCCO4)n[nH]3)c2)o1 (single isomer, unassigned) [3.0 (ii)]
Response: 950
